# Test System: Neuropeptides B/W receptor type 1 (Homo sapiens) (UniProt P48145)
# Sequence (P48145 whole entry, looked up): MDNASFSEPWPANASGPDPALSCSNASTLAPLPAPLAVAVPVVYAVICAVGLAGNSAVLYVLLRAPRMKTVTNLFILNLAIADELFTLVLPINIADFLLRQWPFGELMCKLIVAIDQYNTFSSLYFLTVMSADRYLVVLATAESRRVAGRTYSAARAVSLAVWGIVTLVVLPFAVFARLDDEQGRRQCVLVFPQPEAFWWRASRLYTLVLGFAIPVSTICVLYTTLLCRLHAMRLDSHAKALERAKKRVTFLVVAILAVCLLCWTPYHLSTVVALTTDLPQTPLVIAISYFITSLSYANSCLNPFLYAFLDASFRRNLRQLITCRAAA
# Protocol Notes: GPR7 receptor antagonists, primary screen, cell-based, fluorescence, single concentration (AID 1861);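 note: cells stimulated with the agonist NPW; 0% = agonist with vehicle and 100% = vehicle without agonist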
# Stated Conditions: GPR7-expressing cells, fluorescence antagonist assay; at 4.4 µM; stronger effect = higher value
Out of some 290,000 compounds screened, about 3,100 (1.1%) were called active. The full list was thinned out, with actives kept by preference.
If the reported inhibition equals or exceeds 20%, assign 1 (yes). If not, assign 0 (no).

1. CCOC(=O)CNC(=O)/C=C/c1c(Cl)cccc1Cl    0 (no)
2. CCOc1cc(/C=C/c2nc3ccccc3c(=O)[nH]2)cc(Br)c1OC    0 (no)
3. N=c1n(CCc2ccccc2)c2ccccc2n1Cc1ccccc1F    1 (yes)

Has COc1ccccc1C(c1nnnn1C(C)(C)C)N1CCN(Cc2ccccc2)CC1 (stereo unspecified) a recorded inhibition greater than or equal to 20%? 0 (no)

Is inhibition for COc1ccc(OC)c(C(c2nnnn2C(C)(C)C)N2CCc3ccccc3C2)c1 (stereo unspecified) at or above 20%? 1 (yes)
